Below: a set of entries, each annotated with reported cell viability.
tested on: Molm13; assay: cell viability relative to DMSO control (bortezomib = 0%); higher = less growth inhibition; conditions: 10 nM; 72 h
Respond with the bare value in %.

Solved entries (count: 3):
NC(=O)c1ccc2nc(-c3ccc(Oc4ccc(Cl)cc4)cc3)[nH]c2c1 ... 100
O=C(O)c1ccc2nc(-c3ccccc3)c(-c3ccccc3)nc2c1 ... 98.2
O=c1[nH]c(C2CCCN2)nc2c1oc1ccc(Cl)cc12 (stereo unspecified) ... 96.9

Incoming: May I ask what cell viability has been recorded for NS(=O)(=O)c1ccc(Nc2nc(OCC3CCCCC3)c3[nH]cnc3n2)cc1 ?
Outgoing: 104

Incoming: May I ask what cell viability has been recorded for Nc1nccc(Oc2ccc(NC(=O)c3c[nH]cc(-c4ccc(F)cc4)c3=O)cc2F)c1Cl ?
Outgoing: 60.9

Incoming: May I ask what cell viability has been recorded for CC1(C)OC(=O)C=C[C@]2(C)[C@H]3CC[C@@]4(C)[C@H](c5ccoc5)OC(=O)[C@H]5O[C@]54[C@]3(C)C(=O)C[C@@H]12 [Obacunone] ?
Outgoing: 108

Incoming: May I ask what cell viability has been recorded for Cn1c(=O)n(-c2ccc(C(C)(C)C#N)cc2)c2c3cc(-c4cnc5ccccc5c4)ccc3ncc21 [BEZ235 (NVP-BEZ235, Dactolisib)] ?
Outgoing: 113

Incoming: May I ask what cell viability has been recorded for C[C@H](NC(=O)/C(C#N)=C/c1cccc(Br)n1)c1ccccc1 ?
Outgoing: 103

Incoming: May I ask what cell viability has been recorded for CC(C)c1cnn2c(NCc3ccccc3)cc(NCCCCCCN)nc12 ?
Outgoing: 105

Incoming: May I ask what cell viability has been recorded for CNC(=O)c1ccccc1Nc1cc(Nc2ccc(N3CCOCC3)cc2OC)ncc1C(F)(F)F ?
Outgoing: 105

Incoming: May I ask what cell viability has been recorded for O=C(NCCCNc1nc(Nc2cccc(NC(=O)N3CCCC3)c2)ncc1I)c1cccs1 ?
Outgoing: 95.7

Incoming: May I ask what cell viability has been recorded for CNC(=O)c1ccc(Nc2ncc(C(F)(F)F)c(NCc3nccnc3N(C)S(C)(=O)=O)n2)cc1 ?
Outgoing: 90.2

Incoming: May I ask what cell viability has been recorded for NCCCNc1ccc(Nc2nccc(Nc3cc(C4CC4)[nH]n3)n2)cc1 ?
Outgoing: 94.7

Incoming: May I ask what cell viability has been recorded for Cc1ncc(-c2ccnc(Nc3ccc(S(C)(=O)=O)cc3)n2)n1C(C)C ?
Outgoing: 102

Incoming: May I ask what cell viability has been recorded for CN(C)C/C=C/C(=O)Nc1ccc(C(=O)Nc2cccc(Nc3ncc(Cl)c(-c4c[nH]c5ccccc45)n3)c2)cc1 ?
Outgoing: 88

* * *

tested on: Molm13; test: cell viability relative to DMSO control (bortezomib = 0%); higher = less growth inhibition; conditions: 10 nM; 72 h
Structures can show the parent of a compound that is named as a salt.
Below: a set of entries, each annotated with reported cell viability.
Respond with the bare value in %.

Solved entries (count: 2):
CN1CCN(CCOc2cc(OC3CCOCC3)c3c(Nc4c(Cl)ccc5c4OCO5)ncnc3c2)CC1 ... 98.2
N#CC(c1ccnc(NCCc2cccnc2)n1)c1nc2ccccc2s1 (stereo not given) ... 105

Incoming: May I ask what cell viability has been recorded for CN1CC[C@H](c2c(O)cc(O)c3c(=O)cc(-c4ccccc4Cl)oc23)[C@H](O)C1 [Flavopiridol (Alvocidib) hydrochloride] ?
Outgoing: 114

Incoming: May I ask what cell viability has been recorded for Cc1cc(N2CCOCC2)ccc1Nc1nc(NC2CCCCC2)c2[nH]cnc2n1 ?
Outgoing: 119

Incoming: May I ask what cell viability has been recorded for CCc1cncnc1N1CCN(Cc2nc3ccc(C(F)(F)F)cc3[nH]2)CC1 ?
Outgoing: 106
